# System Tested: Tyrosine-protein kinase JAK2 (Homo sapiens, UniProt O60674)
# Sequence (O60674 whole entry): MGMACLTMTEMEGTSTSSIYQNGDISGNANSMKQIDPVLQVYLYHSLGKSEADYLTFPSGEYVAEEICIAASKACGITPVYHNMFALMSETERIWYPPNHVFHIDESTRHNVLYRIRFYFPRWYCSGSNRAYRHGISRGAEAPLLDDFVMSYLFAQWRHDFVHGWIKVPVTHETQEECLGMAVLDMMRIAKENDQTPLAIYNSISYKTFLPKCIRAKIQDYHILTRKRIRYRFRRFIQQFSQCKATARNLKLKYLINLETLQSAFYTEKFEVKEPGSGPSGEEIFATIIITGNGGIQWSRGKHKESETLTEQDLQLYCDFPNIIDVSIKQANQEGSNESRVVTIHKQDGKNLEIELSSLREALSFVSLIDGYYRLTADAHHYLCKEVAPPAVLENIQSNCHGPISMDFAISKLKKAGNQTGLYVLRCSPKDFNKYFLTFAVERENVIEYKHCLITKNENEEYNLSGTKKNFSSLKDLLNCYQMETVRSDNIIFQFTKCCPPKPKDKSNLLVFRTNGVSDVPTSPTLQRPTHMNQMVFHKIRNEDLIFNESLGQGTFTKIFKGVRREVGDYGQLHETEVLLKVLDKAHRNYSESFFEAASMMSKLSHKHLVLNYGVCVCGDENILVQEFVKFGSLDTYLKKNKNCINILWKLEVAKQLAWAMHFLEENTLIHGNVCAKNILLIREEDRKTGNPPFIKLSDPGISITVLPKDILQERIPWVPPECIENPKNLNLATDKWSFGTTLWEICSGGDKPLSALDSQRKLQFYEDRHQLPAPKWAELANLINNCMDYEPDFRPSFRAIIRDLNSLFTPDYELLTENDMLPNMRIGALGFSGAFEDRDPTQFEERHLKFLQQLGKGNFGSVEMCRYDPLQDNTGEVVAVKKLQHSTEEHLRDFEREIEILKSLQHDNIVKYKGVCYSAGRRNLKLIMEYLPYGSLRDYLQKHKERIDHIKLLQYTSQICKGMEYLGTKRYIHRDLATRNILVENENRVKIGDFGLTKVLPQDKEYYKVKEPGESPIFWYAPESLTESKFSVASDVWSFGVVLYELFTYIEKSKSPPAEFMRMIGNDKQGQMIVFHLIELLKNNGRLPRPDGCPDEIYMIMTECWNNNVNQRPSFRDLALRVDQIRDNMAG
Heads up, the class ranges for IC50 are group A (below 2 nM), group B (2 nM to below 8 nM), group C (8 nM or more)

Compound Structure String | Class Name
N#CCNC(=O)c1ccc(-c2ccnc(Nc3ccc(N4CCC(C(=O)Nc5ccc(C(=O)NO)cc5)CC4)cc3)n2)cc1 | group C
N#CCNC(=O)c1ccc(-c2ccnc(Nc3ccc(N4CCC(C(=O)Nc5ccc(/C=C/C(=O)NO)cc5)CC4)cc3)n2)cc1 | group C
N#CCNC(=O)c1ccc(-c2ccnc(Nc3ccc(N4CCC(C(=O)NO)CC4)cc3)n2)cc1 | group B

Query block: Which IC50 category applies to CS(=O)(=O)Nc1ccc(-c2ccnc(Nc3ccc(N4CCC(C(=O)NCCCC(=O)NO)CC4)cc3)n2)cc1 here?
Result block: group A

Query block: Which IC50 category applies to CS(=O)(=O)Nc1ccc(-c2ccnc(Nc3ccc(N4CCC(C(=O)NCCCCC(=O)NO)CC4)cc3)n2)cc1 here?
Result block: group A

Query block: Which IC50 category applies to CS(=O)(=O)Nc1ccc(-c2ccnc(Nc3ccc(N4CCC(C(=O)NO)CC4)cc3)n2)cc1 here?
Result block: group A

Query block: Which IC50 category applies to CS(=O)(=O)Nc1ccc(-c2ccnc(Nc3ccc(N4CCC(C(=O)NCCCCCC(=O)NO)CC4)cc3)n2)cc1 here?
Result block: group B

Query block: Which IC50 category applies to Nc1ccccc1NC(=O)c1ccc(-c2ccnc(Nc3ccc(N4CCOCC4)cc3)n2)cc1 here?
Result block: group C

Query block: Which IC50 category applies to CS(=O)(=O)Nc1ccc(-c2ccnc(Nc3ccc(N4CCC(C(=O)NCc5ccc(C(=O)NO)cc5)CC4)cc3)n2)cc1 here?
Result block: group C

Query block: Which IC50 category applies to O=C(NO)c1ccc(-c2ccnc(Nc3ccc(N4CCOCC4)cc3)n2)cc1 here?
Result block: group C

====

# Method Notes: Cmax in Sprague-Dawley rat at 10 mg/kg, ip by LC-MS/MS analysis
# Assay type: ADME, organism-based
# Set-up: dose 10 mg/kg, route intraperitoneal
# Condition: in vivo
Measurement Name: Cmax

Query block: Quick one: Cmax of CS(=O)(=O)Nc1ccc(-c2ccnc(Nc3ccc(N4CCC(C(=O)Nc5ccc(/C=C/C(=O)NO)cc5)CC4)cc3)n2)cc1 ?
Result block: 1600 ng/mL

====

pIC50 tested on Non-receptor tyrosine-protein kinase TYK2 (Homo sapiens, UniProt P29597): recorded values
Sequence (P29597 whole entry): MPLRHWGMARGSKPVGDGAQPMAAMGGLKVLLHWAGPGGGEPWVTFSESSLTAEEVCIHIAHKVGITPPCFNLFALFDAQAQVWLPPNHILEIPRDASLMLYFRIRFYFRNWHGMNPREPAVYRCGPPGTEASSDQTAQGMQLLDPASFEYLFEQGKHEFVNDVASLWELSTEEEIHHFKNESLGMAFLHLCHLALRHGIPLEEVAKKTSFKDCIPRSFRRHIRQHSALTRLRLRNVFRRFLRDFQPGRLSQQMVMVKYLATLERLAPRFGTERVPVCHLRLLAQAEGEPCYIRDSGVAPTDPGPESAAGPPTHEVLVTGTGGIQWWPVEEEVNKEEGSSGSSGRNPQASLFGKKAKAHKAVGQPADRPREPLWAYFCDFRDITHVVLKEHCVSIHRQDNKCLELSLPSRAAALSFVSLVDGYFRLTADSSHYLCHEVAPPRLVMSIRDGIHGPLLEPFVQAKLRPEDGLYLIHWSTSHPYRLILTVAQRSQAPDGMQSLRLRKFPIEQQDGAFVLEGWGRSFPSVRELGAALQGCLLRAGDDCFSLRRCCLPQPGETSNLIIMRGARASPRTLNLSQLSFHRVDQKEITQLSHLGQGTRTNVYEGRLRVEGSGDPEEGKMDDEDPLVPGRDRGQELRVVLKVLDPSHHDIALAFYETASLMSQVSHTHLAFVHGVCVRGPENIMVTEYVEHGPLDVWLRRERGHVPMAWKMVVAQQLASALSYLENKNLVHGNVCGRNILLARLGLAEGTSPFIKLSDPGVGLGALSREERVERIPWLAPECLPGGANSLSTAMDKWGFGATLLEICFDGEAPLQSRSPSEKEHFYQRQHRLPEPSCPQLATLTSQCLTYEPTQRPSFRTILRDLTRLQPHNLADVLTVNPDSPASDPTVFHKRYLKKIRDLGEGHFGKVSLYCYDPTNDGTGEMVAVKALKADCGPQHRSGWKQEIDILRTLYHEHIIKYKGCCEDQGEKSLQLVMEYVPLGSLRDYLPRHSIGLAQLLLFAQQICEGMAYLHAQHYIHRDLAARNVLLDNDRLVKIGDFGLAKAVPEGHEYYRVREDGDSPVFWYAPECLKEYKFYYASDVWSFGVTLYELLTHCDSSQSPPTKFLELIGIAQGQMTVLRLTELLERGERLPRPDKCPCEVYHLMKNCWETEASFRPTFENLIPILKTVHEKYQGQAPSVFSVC
Give bare numbers, as −log10 of the molar value.

Record excerpt, results attached:
Compound Structure String | System Tested | Value Measured
CS(=O)(=O)Nc1ccc(-c2ccnc(Nc3ccc(N4CCC(C(=O)NCCCCCCCC(=O)NO)CC4)cc3)n2)cc1 | Non-receptor tyrosine-protein kinase TYK2 (Homo sapiens, UniProt P29597) | 7.13
O=C(NO)c1ccc(-c2ccnc(Nc3ccc(N4CCOCC4)cc3)n2)cc1 | Non-receptor tyrosine-protein kinase TYK2 (Homo sapiens, UniProt P29597) | 6.38

Now look at this entry.
Query block: Quick one: pIC50 of CS(=O)(=O)Nc1ccc(-c2ccnc(Nc3ccc(N4CCC(C(=O)Nc5ccc(/C=C/C(=O)NO)cc5)CC4)cc3)n2)cc1 ?
Result block: 7.34

====

# System Tested: Histone deacetylase 2 (Homo sapiens, UniProt Q92769)
# Sequence (Q92769 whole entry): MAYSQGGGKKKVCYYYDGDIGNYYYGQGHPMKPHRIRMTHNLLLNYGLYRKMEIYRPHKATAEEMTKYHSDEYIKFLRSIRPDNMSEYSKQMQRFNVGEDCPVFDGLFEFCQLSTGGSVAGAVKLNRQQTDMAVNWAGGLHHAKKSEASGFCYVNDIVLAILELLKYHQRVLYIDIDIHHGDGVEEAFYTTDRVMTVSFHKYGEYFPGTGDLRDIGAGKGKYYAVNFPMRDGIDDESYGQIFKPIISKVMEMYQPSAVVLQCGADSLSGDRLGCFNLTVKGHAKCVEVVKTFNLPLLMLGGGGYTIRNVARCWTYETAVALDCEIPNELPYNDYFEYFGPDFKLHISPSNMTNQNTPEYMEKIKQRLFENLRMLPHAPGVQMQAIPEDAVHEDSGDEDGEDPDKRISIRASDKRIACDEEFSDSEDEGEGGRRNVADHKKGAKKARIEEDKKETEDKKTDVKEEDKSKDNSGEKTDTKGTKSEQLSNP
# Method Notes: Inhibition of recombinant HDAC2 (unknown origin) using (Ac-Leu-Gly-Lys(Ac)-AMC as substrate preincubated for 5 mins followed by substrate addition and measured after 30 mins by fluorescence assay
Measurement Name: pIC50
Numbers only, as −log10 of the molar value.

Record excerpt, results attached:
Compound Structure String | Value Measured
CS(=O)(=O)Nc1ccc(-c2ccnc(Nc3ccc(N4CCC(C(=O)NCCCCCCCC(=O)NO)CC4)cc3)n2)cc1 | 6.88
O=C(NO)c1ccc(-c2ccnc(Nc3ccc(N4CCOCC4)cc3)n2)cc1 | 5.77

Now look at this entry.
Query block: Quick one: pIC50 of CS(=O)(=O)Nc1ccc(-c2ccnc(Nc3ccc(N4CCC(C(=O)Nc5ccc(/C=C/C(=O)NO)cc5)CC4)cc3)n2)cc1 ?
Result block: 5.13

====

# Test system: Rattus norvegicus
# Method Notes: Clearance in Sprague-Dawley rat at 10 mg/kg, ip by LC-MS/MS analysis
# Type: ADME, organism-based
# Condition: in vivo
Measurement Name: clearance (mL/min/kg)
Give bare numbers, in mL/min/kg.

Query block: Quick one: clearance of CS(=O)(=O)Nc1ccc(-c2ccnc(Nc3ccc(N4CCC(C(=O)Nc5ccc(/C=C/C(=O)NO)cc5)CC4)cc3)n2)cc1 ?
Result block: 37.4

====

# System Tested: Histone deacetylase 1 (Homo sapiens)
# Sequence (Q13547 whole entry): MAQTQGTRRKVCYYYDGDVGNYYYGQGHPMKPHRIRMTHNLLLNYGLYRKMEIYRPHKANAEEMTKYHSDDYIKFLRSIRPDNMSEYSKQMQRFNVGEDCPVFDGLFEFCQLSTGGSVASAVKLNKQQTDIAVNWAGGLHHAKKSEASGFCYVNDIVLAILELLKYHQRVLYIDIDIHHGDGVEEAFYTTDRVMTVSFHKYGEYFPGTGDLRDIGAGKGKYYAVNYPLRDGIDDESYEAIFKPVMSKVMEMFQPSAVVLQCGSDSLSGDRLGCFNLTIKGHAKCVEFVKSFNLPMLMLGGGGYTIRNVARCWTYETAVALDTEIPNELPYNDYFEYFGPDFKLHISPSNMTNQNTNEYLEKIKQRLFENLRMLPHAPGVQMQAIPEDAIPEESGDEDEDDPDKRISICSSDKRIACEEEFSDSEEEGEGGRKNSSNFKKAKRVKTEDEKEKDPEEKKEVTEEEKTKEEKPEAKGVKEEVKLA
# Method Notes: Inhibition of full length human recombinant HDAC1 expressed in baculovirus expression system using (Ac-Leu-Gly-Lys(Ac)-AMC as substrate preincubated for 5 mins followed by substrate addition and measured after 30 mins by fluorescence assay
Measurement Name: IC50 (µM)
One number for each entry, in µM.

Record excerpt, results attached:
Compound Structure String | Units Text | IC50
CS(=O)(=O)Nc1ccc(-c2ccnc(Nc3ccc(N4CCC(C(=O)Nc5ccc(C(=O)NO)cc5)CC4)cc3)n2)cc1 | µM | 0.38
CS(=O)(=O)Nc1ccc(-c2ccnc(Nc3ccc(N4CCC(C(=O)NO)CC4)cc3)n2)cc1 | µM | 2.9
CS(=O)(=O)Nc1ccc(-c2ccnc(Nc3ccc(N4CCC(C(=O)NCc5ccc(C(=O)NO)cc5)CC4)cc3)n2)cc1 | µM | 1.1

For each of the items listed, what is its IC50?
1. CS(=O)(=O)Nc1ccc(-c2ccnc(Nc3ccc(N4CCC(C(=O)NCCCC(=O)NO)CC4)cc3)n2)cc1
2. CS(=O)(=O)Nc1ccc(-c2ccnc(Nc3ccc(N4CCC(C(=O)NCCCCC(=O)NO)CC4)cc3)n2)cc1
3. CS(=O)(=O)Nc1ccc(-c2ccnc(Nc3ccc(N4CCC(C(=O)Nc5ccc(/C=C/C(=O)NO)cc5)CC4)cc3)n2)cc1

Result block:
1: 9.2; 2: 2.2; 3: 0.25

Query block: Quick one: IC50 of O=C(NO)c1ccc(-c2ccnc(Nc3ccc(N4CCOCC4)cc3)n2)cc1 ?
Result block: 0.16

====

# Test system: Candida albicans
# Method Notes: Synergistic antifungal activity against FLC resistant Candida albicans 0710922 assessed as FIC index after 48 hrs by checkerboard microdilution method
# Format: functional
Measurement Name: fractional inhibitory concentration index (FICI)
One number for each entry.

Compound Structure String | Value Measured
CS(=O)(=O)Nc1ccc(-c2ccnc(Nc3ccc(N4CCC(C(=O)NO)CC4)cc3)n2)cc1 | 0.51
CS(=O)(=O)Nc1ccc(-c2ccnc(Nc3ccc(N4CCC(C(=O)NCCCCC(=O)NO)CC4)cc3)n2)cc1 | 0.51
N#CCNC(=O)c1ccc(-c2ccnc(Nc3ccc(N4CCC(C(=O)Nc5ccccc5N)CC4)cc3)n2)cc1 | 2

Now look at this entry.
Query block: Quick one: fractional inhibitory concentration index (FICI) of CS(=O)(=O)Nc1ccc(-c2ccnc(Nc3ccc(N4CCC(C(=O)NCCCCCCCC(=O)NO)CC4)cc3)n2)cc1 ?
Result block: 0.26

====

# Tested on: Candida albicans
# Method Notes: microbe, parasite or virus in culture
# Format: functional
# Condition: Candida albicans, 0304103, 48 h
# Description: Antifungal activity against FLC resistant Candida albicans 0304103 assessed as fluconazol MIC50 after 48 hrs by checkerboard microdilution method
Provide the recorded MIC50 for the entries that follow.
Numbers only, in µg/mL.

Record excerpt, results attached:
Compound Structure String | System Tested | MIC50 / µg/mL
CS(=O)(=O)Nc1ccc(-c2ccnc(Nc3ccc(N4CCC(C(=O)NCCCCCC(=O)NO)CC4)cc3)n2)cc1 | Candida albicans | 0.5
N#CCNC(=O)c1ccc(-c2ccnc(Nc3ccc(N4CCC(C(=O)Nc5ccc(/C=C/C(=O)NO)cc5)CC4)cc3)n2)cc1 | Candida albicans | 1

Now look at this entry.
Query block: Recorded MIC50 for CS(=O)(=O)Nc1ccc(-c2ccnc(Nc3ccc(N4CCC(C(=O)NO)CC4)cc3)n2)cc1 with Candida albicans, please?
Result block: 0.5

====

# System Tested: Tyrosine-protein kinase JAK3 (Homo sapiens)
# Sequence (P52333 whole entry): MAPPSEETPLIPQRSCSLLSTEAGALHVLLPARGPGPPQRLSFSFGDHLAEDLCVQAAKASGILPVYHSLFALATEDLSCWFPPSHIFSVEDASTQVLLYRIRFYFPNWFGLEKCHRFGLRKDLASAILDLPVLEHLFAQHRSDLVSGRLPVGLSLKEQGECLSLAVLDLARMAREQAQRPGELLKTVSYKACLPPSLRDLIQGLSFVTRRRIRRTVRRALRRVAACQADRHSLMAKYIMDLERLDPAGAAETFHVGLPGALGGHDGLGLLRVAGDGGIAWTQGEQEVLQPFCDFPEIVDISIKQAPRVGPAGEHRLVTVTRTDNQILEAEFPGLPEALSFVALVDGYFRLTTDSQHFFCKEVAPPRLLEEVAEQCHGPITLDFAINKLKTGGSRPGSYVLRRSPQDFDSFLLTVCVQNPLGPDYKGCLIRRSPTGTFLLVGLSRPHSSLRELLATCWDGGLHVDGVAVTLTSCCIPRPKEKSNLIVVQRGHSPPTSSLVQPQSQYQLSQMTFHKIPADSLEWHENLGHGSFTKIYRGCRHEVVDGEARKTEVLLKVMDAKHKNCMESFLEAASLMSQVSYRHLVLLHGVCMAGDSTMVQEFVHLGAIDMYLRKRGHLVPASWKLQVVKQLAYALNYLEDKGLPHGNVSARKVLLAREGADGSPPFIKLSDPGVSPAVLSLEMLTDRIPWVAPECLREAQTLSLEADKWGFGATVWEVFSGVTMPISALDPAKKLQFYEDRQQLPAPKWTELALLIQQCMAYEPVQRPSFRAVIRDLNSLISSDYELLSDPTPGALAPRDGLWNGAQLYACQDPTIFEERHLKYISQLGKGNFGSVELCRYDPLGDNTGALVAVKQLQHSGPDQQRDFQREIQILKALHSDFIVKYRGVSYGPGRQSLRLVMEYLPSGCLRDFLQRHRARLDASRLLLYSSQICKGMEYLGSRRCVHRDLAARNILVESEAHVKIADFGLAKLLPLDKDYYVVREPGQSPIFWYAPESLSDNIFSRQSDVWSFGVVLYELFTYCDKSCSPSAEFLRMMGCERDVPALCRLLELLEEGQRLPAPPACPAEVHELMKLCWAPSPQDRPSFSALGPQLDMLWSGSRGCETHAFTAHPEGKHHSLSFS
Provide the recorded IC50 for the entries that follow.
Give bare numbers, in nM.

Compound Structure String | Measurement Name | Value Measured
O=C(NO)c1ccc(-c2ccnc(Nc3ccc(N4CCOCC4)cc3)n2)cc1 | IC50 | 517
CS(=O)(=O)Nc1ccc(-c2ccnc(Nc3ccc(N4CCC(C(=O)Nc5ccc(/C=C/C(=O)NO)cc5)CC4)cc3)n2)cc1 | IC50 | 121

Query block: Recorded IC50 for CS(=O)(=O)Nc1ccc(-c2ccnc(Nc3ccc(N4CCC(C(=O)NCCCCCCCC(=O)NO)CC4)cc3)n2)cc1 with Tyrosine-protein kinase JAK3 (Homo sapiens), please?
Result block: 144
